Values were extracted from patent US4732970A.

- Tested on: lymphocytic leukemia P388
- PROTOCOL DESCRIPTION: Lymphocytic Leukemia P388 Test
- Assay type: in vivo, BDF1 mice
- ASSAY CONTEXT: dose 1.5 mg/kg intraperitoneally on days 1, 5 and 9; BDF1 mice
*1 amine or outer side, *2 acyl side, *3 side chain or, on linkers, in order; H or OH if unused. Where a SMILES comes first, the peptide text is derived from it. Bridges are numbered along the chain shown (N, C = ends). Roman numbers before positions name the chains, in order. X1 = O=C1c2c(O)ccc(O)c2C(=O)c2c(NCCN[*:2])ccc(NCCN[*:1])c21
READOUT LABEL: Median Survival (days)

- N[C@@H](COCc1ccccc1)C(=O)NCCNc1ccc(NCCNC(=O)[C@@H](N)COCc2ccccc2)c2c1C(=O)c1c(O)ccc(O)c1C2=O.O=C(O)C(F)(F)F.O=C(O)C(F)(F)F (relative stereo): 21.5
- Br.Br.C[C@H](NC(=O)[C@@H]1CCCN1C(=O)CNC(=O)CNC(=O)[C@@H]1CCCN1C(=O)CN)C(=O)NCCNc1ccc(NCCNC(=O)[C@H](C)NC(=O)[C@@H]2CCCN2C(=O)CNC(=O)CNC(=O)[C@@H]2CCCN2C(=O)CN)c2c1C(=O)c1c(O)ccc(O)c1C2=O [Example 64] (I: H-GPGGPA / II: H-GPGGPA; linker I:C-II:C via X1): 20.5
- NCC(=O)NCC(=O)NCC(=O)NCCNc1ccc(NCCNC(=O)CNC(=O)CNC(=O)CN)c2c1C(=O)c1c(O)ccc(O)c1C2=O.O=C(O)C(F)(F)F.O=C(O)C(F)(F)F: 23.0

====

- Tested on: lymphocytic leukemia P388
- PROTOCOL DESCRIPTION: Lymphocytic Leukemia P388 Test
- Type: in vivo, BDF1 mice
- ASSAY CONTEXT: dose 0.75 mg/kg intraperitoneally on days 1, 5 and 9; BDF1 mice
READOUT LABEL: Median Survival (days)

* CSCC[C@H](N)C(=O)NCCNc1ccc(NCCNC(=O)[C@@H](N)CCSC)c2c1C(=O)c1c(O)ccc(O)c1C2=O.Cl.Cl (relative stereo) | 17.0
* C[C@H](NC(=O)[C@H](C)NC(=O)[C@H](CC(=O)OC(C)(C)C)NC(=O)OCC1c2ccccc2-c2ccccc21)C(=O)NCCNc1ccc(NCCNC(=O)[C@H](C)NC(=O)[C@H](C)NC(=O)[C@H](CC(=O)OC(C)(C)C)NC(=O)OCC2c3ccccc3-c3ccccc32)c2c1C(=O)c1c(O)ccc(O)c1C2=O | 18.5
* C[C@@H](N)C(=O)NCCNc1ccc(NCCNC(=O)[C@@H](C)N)c2c1C(=O)c1c(O)ccc(O)c1C2=O.Cl.Cl (stereo in doubt) | 19.0
* Br.Br.CC(C)C[C@H](NC(=O)CNC(=O)CN)C(=O)NCCNc1ccc(NCCNC(=O)[C@H](CC(C)C)NC(=O)CNC(=O)CN)c2c1C(=O)c1c(O)ccc(O)c1C2=O | 22.0
* C[C@H](NC(=O)OCc1ccccc1)C(=O)NCC(=O)NCCNc1ccc(NCCNC(=O)CNC(=O)[C@H](C)NC(=O)OCc2ccccc2)c2c1C(=O)c1c(O)ccc(O)c1C2=O | 12.5
* CC(C)C[C@H](NC(=O)[C@H](C)NC(=O)[C@H](C)N)C(=O)NCCNc1ccc(NCCNC(=O)[C@H](CC(C)C)NC(=O)[C@H](C)NC(=O)[C@H](C)N)c2c1C(=O)c1c(O)ccc(O)c1C2=O.O=C(O)C(F)(F)F.O=C(O)C(F)(F)F | 21.0
* C[C@H](NC(=O)[C@H](CO)NC(=O)[C@H](CC(=O)OC(C)(C)C)NC(=O)OCC1c2ccccc2-c2ccccc21)C(=O)NCCNc1ccc(NCCNC(=O)[C@H](C)NC(=O)[C@H](CO)NC(=O)[C@H](CC(=O)OC(C)(C)C)NC(=O)OCC2c3ccccc3-c3ccccc32)c2c1C(=O)c1c(O)ccc(O)c1C2=O | 20.0
* CC(C)CC(N)C(=O)N(CCO)CCNc1ccc(NCCN(CCO)C(=O)C(N)CC(C)C)c2c1C(=O)c1c(O)ccc(O)c1C2=O.Cl.Cl (centres unmarked) | 12.0
